System: VEGF, P15692-4
Sequence: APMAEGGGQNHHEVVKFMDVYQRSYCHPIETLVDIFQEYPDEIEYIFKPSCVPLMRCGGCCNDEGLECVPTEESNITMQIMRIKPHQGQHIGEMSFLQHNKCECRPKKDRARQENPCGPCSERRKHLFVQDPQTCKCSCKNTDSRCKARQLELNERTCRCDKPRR
Test: SPR
Conditions: 2'-OMe at all positions as printed (Am, Um, Gm, Cm); 5' terminal amine group stated for the PEGylation precursor; BIAcore 2000, VEGF immobilized, aptamer 30-500 nM; PBS pH 7.4 stated for the PEGylated aptamer
Measurement Label: pKd
Give only the number. pKd is defined as minus log10 of concentration in molar units.

query: Would you mind telling me what pKd value was observed for AUGCAGUUUGAGAAGUCGCGCAU [anti-VEGF 2'-OMe-RNA aptamer] ?
result: 8.73
